- target of assay: T1, recombinant human TL1A (human, UniProt O95150 71-251)
- T1 construct: The ELISA method says only 'recombinant TL1A' coated on plates; homotrimeric cytokine; also called TNFSF15; recombinant TL1A
- T1 chain: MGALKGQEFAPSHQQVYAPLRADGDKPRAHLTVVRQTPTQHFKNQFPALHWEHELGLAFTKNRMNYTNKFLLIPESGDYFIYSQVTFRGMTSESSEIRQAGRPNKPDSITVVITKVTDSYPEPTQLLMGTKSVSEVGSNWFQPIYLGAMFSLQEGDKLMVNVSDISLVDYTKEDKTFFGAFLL
- test protocol: competition ELISA on coated recombinant TL1A; competitor biotinylated TL1A-0002
pIC50: −log10 of the molar value.
Would you please tag the item class 1 when its pIC50 is 8 or above, and class 0 when it is below?

{"columns": ["binder", "group label"],
 "data": [
  ["TL1A-0307 (antibody, human IgG1, kappa, V domains shown, human IgG1 effector-function-minimized / human kappa) VH: QVQLVQSGAEVKKPGASVKVSCKASGYDFTYYGIGWVRQAPGQGLEWMGWISTYNTVTHYAPSLQGRVTMTTDTSTSTAYMELRSLRSDDTAVYYCARESYYGSGAHRGGMDVWGQGTTVTVSS VL: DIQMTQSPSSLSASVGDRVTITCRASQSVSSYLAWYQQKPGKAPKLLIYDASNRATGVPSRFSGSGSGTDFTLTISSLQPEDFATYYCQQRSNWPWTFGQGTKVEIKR", "class 0"],
  ["TL1A-0259 (antibody, V domains shown, IgG1 effector-minimized/kappa) VH: QVQLVQSGAEVKKPGASVKVSCKASGYDYTYYGISWVRQAPGQGLEWMGWISTYNDNTHYAQKLQGRVTMTTDTSTSTAYMELRSLRSDDTAVYYCARESYYGSGAHRGGMDVWGQGTTVTVSS VL: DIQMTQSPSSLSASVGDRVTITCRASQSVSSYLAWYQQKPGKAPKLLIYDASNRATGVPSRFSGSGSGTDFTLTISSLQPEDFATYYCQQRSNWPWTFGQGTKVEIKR", "class 0"],
  ["TL1A-0002 (antibody, human IgG1, kappa, V domains shown, human IgG1 effector-function-minimized / human kappa; also called parental TL1A-0002 antibody) VH: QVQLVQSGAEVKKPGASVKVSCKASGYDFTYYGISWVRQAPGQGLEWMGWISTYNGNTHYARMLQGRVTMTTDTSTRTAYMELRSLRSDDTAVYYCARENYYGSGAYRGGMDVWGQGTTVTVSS VL: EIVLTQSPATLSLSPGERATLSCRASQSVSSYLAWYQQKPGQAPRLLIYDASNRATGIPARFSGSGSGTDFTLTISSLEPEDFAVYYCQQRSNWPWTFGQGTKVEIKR", "class 1"]
]}
